# studyTarget: HPK1 (Homo sapiens (Human), UniProt Q92918)
# Sequence (Q92918 whole entry, species assumed): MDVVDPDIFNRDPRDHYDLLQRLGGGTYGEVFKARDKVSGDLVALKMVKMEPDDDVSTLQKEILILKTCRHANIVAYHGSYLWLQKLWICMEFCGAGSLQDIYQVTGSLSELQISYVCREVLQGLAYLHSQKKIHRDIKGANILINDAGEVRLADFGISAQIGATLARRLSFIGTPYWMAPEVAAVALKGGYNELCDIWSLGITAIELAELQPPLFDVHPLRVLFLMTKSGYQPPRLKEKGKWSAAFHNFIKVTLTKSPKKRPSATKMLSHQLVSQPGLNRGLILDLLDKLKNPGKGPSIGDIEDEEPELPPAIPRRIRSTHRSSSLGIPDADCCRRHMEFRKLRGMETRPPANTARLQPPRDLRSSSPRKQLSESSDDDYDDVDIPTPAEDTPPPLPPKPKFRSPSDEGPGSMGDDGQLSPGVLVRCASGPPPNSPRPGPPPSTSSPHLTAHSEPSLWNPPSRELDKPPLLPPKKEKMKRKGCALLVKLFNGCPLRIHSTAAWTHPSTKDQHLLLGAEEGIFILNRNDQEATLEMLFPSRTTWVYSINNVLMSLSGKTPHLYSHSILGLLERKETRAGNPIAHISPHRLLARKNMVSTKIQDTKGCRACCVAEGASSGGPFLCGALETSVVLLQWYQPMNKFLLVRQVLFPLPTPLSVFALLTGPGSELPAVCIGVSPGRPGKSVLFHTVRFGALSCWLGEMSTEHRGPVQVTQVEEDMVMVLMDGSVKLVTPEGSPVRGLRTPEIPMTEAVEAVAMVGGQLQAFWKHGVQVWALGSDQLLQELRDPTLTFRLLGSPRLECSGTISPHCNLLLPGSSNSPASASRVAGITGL
# runDescription: HPK1 enzyme activity detection (1 mM ATP system), ADP-Glo with MBP substrate, Pharmacological Experiment 2
# Type: biochemical
pIC50: −log10 of the molar value.
recordedEndpoint: pIC50

Solved cases below.
>>> resultnumber("CN(CC(F)F)C1CC2(CCOCC2)c2ccc(Nc3ccc(-c4cnc5cc(F)ccn45)c4c3C(=O)NC4)nc21 (stereo not shown) [Compound 114]")
7.03
>>> resultnumber("CN(C)C1CC2(CCOCC2)c2ccc(Nc3ccc(-c4cnc5cc(C(F)F)ccn45)c4c3C(=O)NC4)nc21 (stereo not shown) [Compound 160]")
8.18
>>> resultnumber("CC(C)N(C)C1CC2(CCOCC2)c2ccc(Nc3ccc(-c4cnc5cc(F)ccn45)c4c3C(=O)NC4)nc21 (stereo not shown) [Compound 85]")
8.28
>>> resultnumber("CN(C1CC1)C1CC2(CCOCC2)c2ccc(Nc3ccc(-c4cnc5cc(F)ccn45)c4c3C(=O)NC4)nc21 (stereo not shown) [Compound 61]")
8.11

(a) CN(C)C1CC2(CCOCC2)c2ccc(Nc3ccc(-c4cnc5cc(OC(F)(F)F)ccn45)c4c3C(=O)NC4)nc21 (stereo not shown) [Compound 175]
(b) COCCNC1CC2(CCOCC2)c2ccc(Nc3ccc(-c4cnc5cc(F)ccn45)c4c3C(=O)NC4)nc21 (stereo not shown) [Compound 106]
Q) Please compare: a and b . Report which one has the smaller pIC50 value. Answer by quoting the chosen item's label.
A) a

====

# studyTarget: UniProt Q92918
# runDescription: HPK1 enzyme activity detection (1 mM ATP system), ADP-Glo with MBP substrate, Pharmacological Experiment 2
# Assay type: biochemical
recordedEndpoint: IC50 (nM)

Some solved cases for reference:
>>> resultnumber("O=C1NCc2c(-c3cnc4cc(F)ccn34)ccc(Nc3ccc4c(n3)C(N3CCC(F)(F)CC3)CC43CCOCC3)c21 (stereo not shown)")
12.4
>>> resultnumber("Cc1ccn2c(-c3ccc(Nc4ccc5c(n4)CCCC54CCOCC4)c4c3CNC4=O)cnc2c1")
3.35
>>> resultnumber("CN(C)C1CC2(CCOCC2)c2ccc(Nc3ccc(-c4cnc5cc(Cl)ccn45)c4c3C(=O)NC4)nc21 (stereo not shown)")
4.62
>>> resultnumber("COC1(C)CCN(C2CC3(CCOCC3)c3ccc(Nc4ccc(-c5cnc6cc(F)ccn56)c5c4C(=O)NC5)nc32)CC1 (stereo not shown)")
9.27
>>> resultnumber("CN(C)C1CC2(CCOCC2)c2ccc(Nc3ccc(-c4cnn5cc(F)ccc45)c4c3C(=O)NC4)nc21 (stereo not shown)")
2.73

(A) O=C1NCc2c(-c3cnc4cc(F)ccn34)ccc(Nc3ccc4c(n3)CN(CC3CC3)CC43CCOCC3)c21
(B) C[C@H]1CN(C2CC3(CCOCC3)c3ccc(Nc4ccc(-c5cnc6cc(F)ccn56)c5c4C(=O)NC5)nc32)CCO1 (stereo partly shown)
Q) In terms of reported IC50, does A or B have the smaller number? Give the label of your selection.
A) B

====

The molecules below have reported IC50 for UniProtKB Q8IVH8.
recordedEndpoint: IC50 (µM)

>>> resultnumber("CN(C)C1CC2(CCOCC2)c2ccc(Nc3ccc(-c4cnc5n4CCOC5)c4c3C(=O)NC4)nc21 (stereo not shown)")
1.19
>>> resultnumber("CN(C)C1CC2(CCOCC2)c2ccc(Nc3ccc(-c4cnc5cc(F)ccn45)c4c3C(=O)NC4)nc21 (stereo not shown)")
1.17
>>> resultnumber("N#Cc1ccn2c(-c3ccc(Nc4ccc5c(n4)CCCC54CCOCC4)c4c3CNC4=O)cnc2c1")
1.23
>>> resultnumber("O=C1NCc2c(-c3cnc4cc(F)ccn34)ccc(Nc3ccc4c(n3)C(N3CC(F)C3)CC43CCOCC3)c21 (stereo not shown)")
0.136

(a) O=C1NCc2c(-c3cnc4cc(F)ccn34)ccc(Nc3ccc4c(n3)C(NC3CCCC3)CC43CCOCC3)c21 (stereo not shown)
(b) O=C1NCc2c(-c3cnc4cc(F)ccn34)ccc(Nc3ccc4c(n3)C(N3CC5(COC5)C3)CC43CCOCC3)c21 (stereo not shown)
Q) Identify the entry with the smaller IC50: a or b . In your reply, give the label of the chosen option.
A) b
(b: 0.208 µM, a: 0.791 µM)

====

# studyTarget: HPK1 (Homo sapiens (Human), UniProt Q92918)
# runDescription: HPK1 enzyme activity detection (1 mM ATP system), ADP-Glo with MBP substrate, Pharmacological Experiment 2
# Type: biochemical
pIC50: −log10 of the molar value.
recordedEndpoint: pIC50

>>> resultnumber("CN(C)C1COC2(CCOCC2)c2ccc(Nc3ccc(-c4cnc5cc(F)ccn45)c4c3C(=O)NC4)nc21 (centres unmarked) [Compound 49]")
8.35
>>> resultnumber("O=C1NCc2c(-c3cnc4cc(F)ccn34)ccc(Nc3ccc4c(n3)C(N3CC5CCC(C3)O5)CC43CCOCC3)c21 (centres unmarked) [Compound 116]")
7.10
>>> resultnumber("CCN1Cc2nc(Nc3ccc(-c4cnc5cc(F)ccn45)c4c3C(=O)NC4)ccc2C2(CCOCC2)C1 [Compound 124]")
8.07
>>> resultnumber("O=C1NCc2c(-c3cnc4cc(F)ccn34)ccc(Nc3ccc4c(n3)C(N3CC[C@H](F)C3)CC43CCOCC3)c21 (some centres unmarked) [Compound 74]")
8.52
>>> resultnumber("O=C1NCc2c(-c3cnc4cc(F)ccn34)ccc(Nc3ccc4c(n3)C(NC3CCCC3)CC43CCOCC3)c21 (centres unmarked) [Compound 109]")
8.22

(1) CC(C)NC1CC2(CCOCC2)c2ccc(Nc3ccc(-c4cnc5cc(F)ccn45)c4c3C(=O)NC4)nc21 (centres unmarked) [Compound 102]
(2) Cc1cc(Nc2cnc(-c3ccnc4c3ccn4C)c3c2C(=O)NC3)nc2c1C1(CCOCC1)CC2N(C)C (centres unmarked) [Compound 30]
(3) O=C1NCc2c(-c3cnc4cc(OC(F)F)ccn34)ccc(Nc3ccc4c(n3)C(N3CCC(F)CC3)CC43CCOCC3)c21 (centres unmarked) [Compound 176]
Q) Order these by pIC50, descending, and give the full ranking. A ranking is expressed here by listing the labels in the requested order.
A) 2, 1, 3

====

# studyTarget: HPK1 (Homo sapiens (Human))
# runDescription: HPK1 enzyme activity detection (1 mM ATP system), ADP-Glo with MBP substrate, Pharmacological Experiment 2
# Type: biochemical
recordedEndpoint: IC50 (nM)

>>> resultnumber("COc1ccn2c(-c3ccc(Nc4ccc5c(n4)C(N(C)C)CC54CCOC4)c4c3CNC4=O)cnc2c1 (centres unmarked) [Compound 180]")
13.9
>>> resultnumber("O=C1NCc2c(-c3cnc4cc(F)ccn34)ccc(Nc3ccc4c(n3)C(NC3CC3)CC43CCOCC3)c21 (centres unmarked) [Compound 62]")
10.2

(P) COc1ccn2c(-c3ccc(Nc4ccc5c(n4)C(N(C)C)CC54CCOCC4)c4c3CNC4=O)cnc2c1 (centres unmarked) [Compound 170]
(Q) O=C1NCc2c(-c3cnc4n3CCCC4)ccc(Nc3ccc4c(n3)CCCC43CCOCC3)c21 [Compound 167]
Q) Of P and Q , whose reported IC50 is the larger number? Answer by quoting the chosen item's label.
A) Q

====

# Tested on: human peripheral blood mononuclear cells
# runDescription: Detection of IFN-γ secretion in human peripheral blood mononuclear cells (anti-CD3/CD28 beads, ELISA)
# Format: cell-based
# conditions: IFN-γ secretion, human PBMC
recordedEndpoint: Maximum induction factor
Could you respond with only the numeric value?

Q) Give recorded Maximum induction factor with human peripheral blood mononuclear cells for the following molecule: O=C1NCc2c(-c3cnc4cc(F)ccn34)ccc(Nc3ccc4c(n3)CCCC43CCCC3)c21
A) 19.1

====

Let's go through some recorded IC50 values for GLK (Homo sapiens (Human), UniProt Q8IVH8) together.

>>> result("CN(C1CCOCC1)C1CC2(CCOCC2)c2ccc(Nc3ccc(-c4cnc5cc(F)ccn45)c4c3C(=O)NC4)nc21 (stereo not drawn)")
"> 25 µM"
>>> result("CC(C)NC1CC2(CCOCC2)c2ccc(Nc3ccc(-c4cnc5cc(F)ccn45)c4c3C(=O)NC4)nc21 (stereo not drawn)")
"> 30 µM"

We now examine a further molecule.
Q) What value of IC50 has been recorded for this entry: CN(C1CC1)C1CC2(CCOCC2)c2ccc(Nc3ccc(-c4cnc5cc(F)ccn45)c4c3C(=O)NC4)nc21 (stereo not drawn)
A) > 30 µM

====

# studyTarget: HPK1 (Homo sapiens (Human), UniProt Q92918)
# runDescription: HPK1 enzyme activity detection (1 mM ATP system), ADP-Glo with MBP substrate, Pharmacological Experiment 2
# Format: biochemical
recordedEndpoint: IC50 (nM)

>>> resultnumber("O=C1NCc2c(-c3cnc4cc(Cl)ccn34)ccc(Nc3ccc4c(n3)CCCC43CCOCC3)c21")
3.21
>>> resultnumber("Cc1cc(Nc2ccc(-c3cnn4ccccc34)c3c2C(=O)NC3)nc2c1C1(CCOCC1)C[C@H]2N(C)C")
2.06
>>> resultnumber("CC(C)NC1CC2(CCOCC2)c2ccc(Nc3ccc(-c4cnc5cc(Cl)ccn45)c4c3C(=O)NC4)nc21 (stereo not shown)")
4.52
>>> resultnumber("C[C@@H]1CN(C2CC3(CCOCC3)c3ccc(Nc4ccc(-c5cnc6cc(F)ccn56)c5c4C(=O)NC5)nc32)C[C@@H](C)O1 (stereo partly shown)")
48.7
>>> resultnumber("O=C1NCc2c(-c3cnc4cc(F)ccn34)ccc(Nc3ccc4c(n3)C(N3C[C@H]5C[C@@H]3CO5)CC43CCOCC3)c21 (stereo partly shown) [Compound 143]")
3.51

(a) O=C1NCc2c(-c3cnc4cc(OC(F)F)ccn34)ccc(Nc3ccc4c(n3)C(N3CCOCC3)CC43CCOCC3)c21 (stereo not shown)
(b) O=C1NCc2c(-c3cnc4cc(F)ccn34)ccc(Nc3ccc4c(n3)C(NCC(F)F)CC43CCOCC3)c21 (stereo not shown)
(c) O=C1N=Cc2c(-c3cnc4cc(Cl)ccn34)ccc(Nc3ccc4c(n3)CNCC43CC3)c21
(d) CN(C1CCOCC1)C1CC2(CCOCC2)c2ccc(Nc3ccc(-c4cnc5cc(F)ccn45)c4c3C(=O)NC4)nc21 (stereo not shown)
(e) O=C1NCc2c(-c3cnc4cc(F)ccn34)ccc(Nc3ccc4c(n3)C(N3CCNCC3)CC43CCOCC3)c21 (stereo not shown)
Q) Hey, quick one: sort these by IC50, largest value first please. Put the labels in the requested order and write them down.
A) e, a, d, c, b
(e: 171 nM, a: 102 nM, d: 27 nM, c: 14.4 nM, b: 5.26 nM)
